System: Nucleic Acid
test-details: Inhibition of [3H]uridine incorporation into proliferating L1210 cells.
Assay type: functional, cell-based
cond: Mus musculus
Output: class label from ED50. Mapping: c1 (below 5 nM), c2 (5 nM to below 500 nM), c3 (500 nM or more)

INPUT: Returns: class label. Input: COc1cccc2c1C(=O)c1c(O)c3c(c(O)c1C2=O)C[C@@](O)(C(C)=O)CC3OC1CC(N2CCOCC2C#N)C(O)C(C)O1 (some centres undefined)
OUTPUT: c1

INPUT: Please classify: COc1cccc2c1C(=O)c1c(O)c3c(c(O)c1C2=O)C[C@@](O)(C(=O)CO)C[C@@H]3O[C@H]1C[C@H](N)[C@H](O)[C@H](C)O1.Cl [DOXORUBICIN HYDROCHLORIDE]
OUTPUT: c3

INPUT: Tag the class for COc1cccc2c1C(=O)c1c(O)c3c(c(O)c1C2=O)C[C@@](O)(C(C)O)CC3OC1CC(N2CCOCC2C#N)C(O)C(C)O1 (some centres undefined)
OUTPUT: c1

INPUT: Which bin, given its ED50, does COc1cccc2c1C(=N)c1c(O)c3c(c(O)c1C2=O)C[C@@](O)(C(O)CO)CC3OC1CC(N2CCOCC2)C(O)C(C)O1.Cl (some centres undefined) occupy?
OUTPUT: c3

INPUT: # classify by ED50 band: COc1cccc2c1C(=O)c1c(O)c3c(c(O)c1C2=O)C[C@@](O)(C(=O)CO)CC3OC1CC(N2CCOCC2)C(O)C(C)O1.Cl (some centres undefined)
OUTPUT: c2

INPUT: State the class of the compound shown: COc1cccc2c1C(=O)c1c(O)c3c(c(O)c1C2=O)C[C@@](O)(C(C)O)CC3OC1CC(N2CCOCC2)C(O)C(C)O1 (some centres undefined)
OUTPUT: c3

INPUT: Please let me know in which category the item COc1cccc2c1C(=O)c1c(O)c3c(c(O)c1C2=O)C[C@@](O)(C(O)CO)CC3OC1CC(N2CCOCC2C#N)C(O)C(C)O1 (some centres undefined) belongs.
OUTPUT: c1

INPUT: Note: place this compound into its band. Item: COc1cccc2c1C(=O)c1c(O)c3c(c(O)c1C2=O)C[C@@](O)(C(C)=O)CC3OC1CC(N2CCOCC2)C(O)C(C)O1.Cl (some centres undefined)
OUTPUT: c2

INPUT: Using the reported ED50, which band applies to COc1cccc2c1C(=O)c1c(O)c3c(c(O)c1C2=O)C[C@@](O)(C(C)=O)C[C@@H]3O[C@H]1C[C@H](N)[C@H](O)[C@H](C)O1.Cl [DAUNORUBICIN HYDROCHLORIDE] ?
OUTPUT: c2

INPUT: Which class is correct for the following compound? COc1cccc2c1C(=N)c1c(O)c3c(c(O)c1C2=O)C[C@@](O)(C(O)CO)CC3OC1CC(N2CCOCC2C#N)C(O)C(C)O1 (some centres undefined)
OUTPUT: c2

INPUT: In plain terms, what class is COc1cccc2c1C(=O)c1c(O)c3c(c(O)c1C2=O)C[C@@](O)(C(=O)CO)CC3OC1CC(N2CCOCC2C#N)C(O)C(C)O1 (some centres undefined) ?
OUTPUT: c1

INPUT: Class label required: COc1cccc2c1C(=O)c1c(O)c3c(c(O)c1C2=O)C[C@@](O)(C(O)CO)CC3OC1CC(N2CCOCC2)C(O)C(C)O1.Cl (some centres undefined)
OUTPUT: c3

INPUT: Kindly identify the class of COc1cccc2c1C(=N)c1c(O)c3c(c(O)c1C2=O)C[C@@](O)(C(=O)CO)CC3OC1CC(N2CCOCC2C#N)C(O)C(C)O1 (some centres undefined) .
OUTPUT: c1

INPUT: Which class holds COc1cccc2c1C(=N)c1c(O)c3c(c(O)c1C2=O)C[C@@](O)(C(=O)CO)CC3OC1CC(N2CCOCC2)C(O)C(C)O1.Cl (some centres undefined) ?
OUTPUT: c3
